- test-method-notes: Colorimetric alkylation rate constant assay with thiol N1
- Assay type: physicochemical
- condition-info: Replicate 1; time 576 sec; [B]0 = 250; in µM
metric: remaining [B]

O=C(CCl)Nc1ccc(F)cc1 [Compound C3] = 225.262
O=C(CCl)Nc1ccccc1C(=O)O [Compound C5] = 231.048
O=C(CCl)Nc1ccccc1 [Compound C2] = 226.345
C=CS(=O)(=O)Nc1cc2cc(C(=O)CCC(=O)O)sc2cc1OC [Compound E1] = 193.684
O=C(CCl)N1CCOCC1 [Compound C4] = 224.265
COc1cc2sc(C(=O)CCC(=O)O)cc2cc1NC(=O)CCl [Compound E2] = 163.389

###

- test-method-notes: Colorimetric alkylation rate constant assay with TNB^2− as non-specific thiol
- Format: physicochemical
- condition-info: Replicate 1, 1806 sec, [B]0 = 250; in µM
metric: remaining [B]

COc1cc2sc(C(=O)CCC(=O)O)cc2cc1NC(=O)CCl [Compound E2] = 241.659
C=CS(=O)(=O)Nc1cc2cc(C(=O)CCC(=O)O)sc2cc1OC [Compound E1] = 244.513
O=C(CCl)N1CCOCC1 [Compound C4] = 239.088
O=C(CCl)Nc1ccccc1 [Compound C2] = 241.905
O=C(CCl)Nc1ccc(F)cc1 [Compound C3] = 242.497
O=C(CCl)Nc1ccccc1C(=O)O [Compound C5] = 245.931

###

- system: wild-type human STING LBD (hSTINGwt 138-379) (Homo sapiens, UniProt Q86WV6, H232R)
- Construct: SUMO (N, cleaved yes); made in house; host or cells: Escherichia coli BL21 (DE3)
- Sequence (Q86WV6 138-379 H232R): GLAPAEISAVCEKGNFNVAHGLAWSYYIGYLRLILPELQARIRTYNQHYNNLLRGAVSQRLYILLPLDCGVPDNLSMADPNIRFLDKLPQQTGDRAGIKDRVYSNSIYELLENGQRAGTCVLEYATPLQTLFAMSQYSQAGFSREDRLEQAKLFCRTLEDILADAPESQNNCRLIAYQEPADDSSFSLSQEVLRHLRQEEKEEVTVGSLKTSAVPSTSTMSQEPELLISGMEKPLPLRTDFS
- test-method-notes: Isothermal titration calorimetry (ITC), reverse titration
- Format: binding
- condition-info: ITC run _01; read-out: Kd
pKd: −log10 of the molar value.
metric: pKd

See these solved cases before continuing.
COc1cc2sc(C(=O)CCC(=O)O)cc2cc1SCCSc1cc2cc(C(=O)CCC(=O)O)sc2cc1OC = 6.72
COc1cc2sc(C(=O)CCC(=O)O)cc2cc1CSc1cc2cc(C(=O)CCC(=O)O)sc2cc1OC [Compound D2] = 7.10

[1] COc1cc2sc(C(=O)CCC(=O)O)cc2cc1Sc1cc2cc(C(=O)CCC(=O)O)sc2cc1OC [Compound D1]
[2] COc1cc2sc(C(=O)CCC(=O)O)cc2cc1SCSc1cc2cc(C(=O)CCC(=O)O)sc2cc1OC
[3] COc1cc2sc(C(=O)CCC(=O)O)cc2cc1CSCc1cc2cc(C(=O)CCC(=O)O)sc2cc1OC
Arrange the 3 entries by pKd so the values rise. List each label, following the requested order.
1, 2, 3

###

- test-method-notes: LC–MS/MS analysis of in situ SC2S formation (tissue distribution)
- Format: in vivo, BALB/c mice
- condition-info: BALB/c, mouse, plasma, other: β-GlcA-N1 intraperitoneal (IP) + E4 intratumoral (IT), 1h; individual samples; read-out: Blood Calculated Concentration
metric: concentration at 1 h (ng/mL)
Give just the numeric value; ng/mL need not be written.

Need concentration at 1 h of COc1cc2sc(C(=O)CCC(=O)O)cc2cc1SCCSc1cc2cc(C(=O)CCC(=O)O)sc2cc1OC [SC2S] , thanks.
1.29
